Molecular target: 5-hydroxytryptamine receptor 2A (Homo sapiens)
Sequence (P28223 whole entry): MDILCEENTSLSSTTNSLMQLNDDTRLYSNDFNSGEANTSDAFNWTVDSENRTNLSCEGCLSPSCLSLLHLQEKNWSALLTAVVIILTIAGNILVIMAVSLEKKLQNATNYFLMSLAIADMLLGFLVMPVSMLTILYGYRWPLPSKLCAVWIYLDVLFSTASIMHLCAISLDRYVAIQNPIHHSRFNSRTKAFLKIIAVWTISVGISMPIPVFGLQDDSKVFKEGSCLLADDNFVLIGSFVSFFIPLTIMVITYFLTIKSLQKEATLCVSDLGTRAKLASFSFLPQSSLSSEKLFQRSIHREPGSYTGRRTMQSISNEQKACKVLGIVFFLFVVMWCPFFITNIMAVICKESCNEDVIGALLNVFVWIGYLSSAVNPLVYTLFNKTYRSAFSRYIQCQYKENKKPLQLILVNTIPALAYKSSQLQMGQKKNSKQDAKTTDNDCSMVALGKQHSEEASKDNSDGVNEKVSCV
value type: pKi
One number for each entry, as −log10 of the molar value.

Tell me the measured pKi of COc1cc(OC(C)C)cc(S(=O)(=O)c2ccc3c(c2)O[C@H]2CNCC[C@@H]32)c1.Cl (single isomer, unassigned; enantiomer 1) , please.
5.43

###

Test: Half life in rat liver microsomes
Type: ADME, Microsome
value type: half-life

>>> observed_value("COc1cc(OC(C)C)cc(S(=O)(=O)c2ccc3c(c2)O[C@H]2CNCC[C@@H]32)c1.Cl (single isomer, unassigned; enantiomer 1)")
"> 40 min"
>>> observed_value("Cl.O=S(=O)(c1ccccc1)c1ccc2c(c1)O[C@H]1CNCC[C@@H]21 (racemic)")
"> 40 min"

Shifting focus to the molecule that follows.
Tell me the measured half-life of Cl.O=S(=O)(c1ccccc1)c1ccc2c3c(oc2c1)CNCC3 , please.
< 5 min

###

So I've got a bunch of molecules here, and I need their AUC values.
System: Rattus norvegicus
Assay: AUC in po dosed rat
Format: ADME, organism-based, Plasma
Settings: in vivo
Numbers only, in ng·h/mL.

>>> observed_value("Cl.O=S(=O)(c1cccc(F)c1)c1ccc2c(c1)O[C@H]1CNCC[C@@H]21 (single isomer, unassigned; enantiomer 2)")
434
>>> observed_value("CC(C)Oc1cccc(S(=O)(=O)c2ccc3c(c2)O[C@H]2CNCC[C@@H]32)c1.Cl (single isomer, unassigned; enantiomer 2)")
310
>>> observed_value("Cl.O=S(=O)(c1cccc(F)c1)c1ccc2c(c1)O[C@H]1CNCC[C@@H]21 (single isomer, unassigned; enantiomer 1)")
0

Shifting focus to the molecule that follows.
Any idea what AUC came out for CC(C)Oc1cccc(S(=O)(=O)c2ccc3c(c2)O[C@H]2CNCC[C@@H]32)c1.Cl (single isomer, unassigned; enantiomer 1) on Rattus norvegicus?
637

###

So I've got a bunch of molecules here, and I need their half-life values.
Assay: Half life in mouse liver microsomes
Type: ADME, Microsome

// below: answered molecules
>>> observed_value("Cl.O=S(=O)(c1ccccc1)c1ccc2c(c1)O[C@H]1CNCC[C@@H]21 (racemic)")
"> 40 min"
>>> observed_value("Cl.O=S(=O)(c1ccccc1)c1ccc2c3c(oc2c1)CNCC3")
"< 5 min"

Shifting focus to the molecule that follows.
Tell me the measured half-life of COc1cc(OC(C)C)cc(S(=O)(=O)c2ccc3c(c2)O[C@H]2CNCC[C@@H]32)c1.Cl (single isomer, unassigned; enantiomer 1) , please.
> 40 min

###

Experiment: Aqueous solubility at pH 2
Format: physicochemical
Details: buffer
value type: solubility

Tell me the measured solubility of COc1cc(OC(C)C)cc(S(=O)(=O)c2ccc3c(c2)O[C@H]2CNCC[C@@H]32)c1.Cl (single isomer, unassigned; enantiomer 1) , please.
> 130 µg/mL

###

Biological target: 5-hydroxytryptamine receptor 6 (Rattus norvegicus, UniProt P31388)
Sequence (P31388 whole entry): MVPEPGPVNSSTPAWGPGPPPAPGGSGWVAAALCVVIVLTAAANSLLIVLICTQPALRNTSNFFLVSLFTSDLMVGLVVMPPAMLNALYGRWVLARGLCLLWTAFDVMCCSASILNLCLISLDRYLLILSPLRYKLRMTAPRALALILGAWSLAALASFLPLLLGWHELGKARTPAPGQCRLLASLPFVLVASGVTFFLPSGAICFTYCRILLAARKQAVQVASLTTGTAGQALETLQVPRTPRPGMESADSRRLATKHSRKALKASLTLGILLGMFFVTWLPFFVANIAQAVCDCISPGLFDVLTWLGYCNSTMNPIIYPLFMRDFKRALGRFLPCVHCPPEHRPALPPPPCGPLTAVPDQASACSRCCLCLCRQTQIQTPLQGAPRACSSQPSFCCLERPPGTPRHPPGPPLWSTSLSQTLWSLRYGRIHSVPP
Assay: Displacement of [3H]LSD from rat recombinant 5HT6 receptor
So I've got a bunch of compounds here, and I need their log10(Ki) values.
# values: log10(Ki), units nM

// below: answered compounds
>>> observed_value("O=S(=O)(c1cc(F)cc(F)c1)c1ccc2c(c1)O[C@H]1CNCC[C@@H]21 (single isomer, unassigned; enantiomer 2)")
2.24
>>> observed_value("O=S(=O)(c1ccc2c(c1)O[C@H]1CNCC[C@@H]21)c1ccccc1Cl (racemic)")
2.31
>>> observed_value("CC(C)Oc1cccc(S(=O)(=O)c2ccc3c(c2)O[C@H]2CNCC[C@@H]32)c1 (racemic)")
2.19
>>> observed_value("O=S(=O)(c1ccc2c(c1)O[C@H]1CNCC[C@@H]21)c1ccccc1F (racemic)")
2.16

Would you be so kind as to report log10(Ki) for each listed record?
1. O=S(=O)(c1cccc(F)c1)c1ccc2c(c1)O[C@H]1CNCC[C@@H]21 (racemic)
2. Cc1ccc(S(=O)(=O)c2ccc3c(c2)O[C@H]2CNCC[C@@H]32)cc1 (racemic)
3. Cc1cccc(S(=O)(=O)c2ccc3c(c2)O[C@H]2CNCC[C@@H]32)c1 (racemic)

[1.72, 2.37, 2.39]

Tell me the measured log10(Ki) of O=S(=O)(c1cc(F)cc(F)c1)c1ccc2c(c1)O[C@H]1CNCC[C@@H]21 (single isomer, unassigned; enantiomer 1) , please.
3.34

###

Target sequence: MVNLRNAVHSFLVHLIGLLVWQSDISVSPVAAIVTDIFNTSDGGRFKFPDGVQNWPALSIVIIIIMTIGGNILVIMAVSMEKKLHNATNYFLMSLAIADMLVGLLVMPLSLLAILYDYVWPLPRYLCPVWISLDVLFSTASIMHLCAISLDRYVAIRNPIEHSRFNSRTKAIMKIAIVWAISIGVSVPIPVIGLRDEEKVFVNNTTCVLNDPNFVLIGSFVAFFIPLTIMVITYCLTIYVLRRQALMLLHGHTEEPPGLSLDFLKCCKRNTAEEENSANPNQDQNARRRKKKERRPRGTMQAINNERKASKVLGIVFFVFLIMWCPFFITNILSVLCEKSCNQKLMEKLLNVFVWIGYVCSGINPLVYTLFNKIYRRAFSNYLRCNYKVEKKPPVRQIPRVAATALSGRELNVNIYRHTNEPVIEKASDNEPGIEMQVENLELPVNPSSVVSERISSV
value type: Ki
Field note: include the unit after the figure.

Tell me the measured Ki of COc1cc(OC(C)C)cc(S(=O)(=O)c2ccc3c(c2)O[C@H]2CNCC[C@@H]32)c1.Cl (single isomer, unassigned; enantiomer 1) , please.
19 µM

###

Test: Oral bioavailability in rat at 5 mg/kg at 24 hrs
Type: ADME, organism-based
Conditions: in vivo
So I've got a bunch of compounds here, and I need their bioavailability values.

>>> observed_value("O=S(=O)(c1ccccc1)c1cnc2c(N3CCNCC3)cccc2c1 [INTEPIRDINE]")
"24%"

Shifting focus to the compound that follows.
Tell me the measured bioavailability of COc1cc(OC(C)C)cc(S(=O)(=O)c2ccc3c(c2)O[C@H]2CNCC[C@@H]32)c1.Cl (single isomer, unassigned; enantiomer 1) , please.
39%

###

Molecular target: Muscarinic acetylcholine receptor M2 (Homo sapiens, UniProt P08172)
Sequence (P08172 whole entry): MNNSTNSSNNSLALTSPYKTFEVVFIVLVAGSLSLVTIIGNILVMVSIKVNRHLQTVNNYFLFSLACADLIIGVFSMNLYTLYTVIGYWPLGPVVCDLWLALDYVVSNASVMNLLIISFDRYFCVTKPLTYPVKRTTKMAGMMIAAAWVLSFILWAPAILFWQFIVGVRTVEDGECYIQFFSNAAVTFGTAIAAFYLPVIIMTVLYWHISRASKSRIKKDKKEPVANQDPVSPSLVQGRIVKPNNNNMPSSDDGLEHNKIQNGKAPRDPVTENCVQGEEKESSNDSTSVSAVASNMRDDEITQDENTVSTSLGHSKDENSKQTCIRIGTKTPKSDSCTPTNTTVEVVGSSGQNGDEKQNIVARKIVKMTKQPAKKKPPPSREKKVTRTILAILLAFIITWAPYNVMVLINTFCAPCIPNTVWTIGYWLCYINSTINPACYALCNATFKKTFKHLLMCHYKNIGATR
value type: pIC50
One number for each entry, as −log10 of the molar value.

Any idea what pIC50 came out for COc1cc(OC(C)C)cc(S(=O)(=O)c2ccc3c(c2)O[C@H]2CNCC[C@@H]32)c1.Cl (single isomer, unassigned; enantiomer 1) on Muscarinic acetylcholine receptor M2 (Homo sapiens, UniProt P08172)?
5.10

Reference source: ChEMBL document CHEMBL1949541
